# Tested on: Angiotensin-converting enzyme (Oryctolagus cuniculus, UniProt P12822)
# Sequence (P12822 whole entry): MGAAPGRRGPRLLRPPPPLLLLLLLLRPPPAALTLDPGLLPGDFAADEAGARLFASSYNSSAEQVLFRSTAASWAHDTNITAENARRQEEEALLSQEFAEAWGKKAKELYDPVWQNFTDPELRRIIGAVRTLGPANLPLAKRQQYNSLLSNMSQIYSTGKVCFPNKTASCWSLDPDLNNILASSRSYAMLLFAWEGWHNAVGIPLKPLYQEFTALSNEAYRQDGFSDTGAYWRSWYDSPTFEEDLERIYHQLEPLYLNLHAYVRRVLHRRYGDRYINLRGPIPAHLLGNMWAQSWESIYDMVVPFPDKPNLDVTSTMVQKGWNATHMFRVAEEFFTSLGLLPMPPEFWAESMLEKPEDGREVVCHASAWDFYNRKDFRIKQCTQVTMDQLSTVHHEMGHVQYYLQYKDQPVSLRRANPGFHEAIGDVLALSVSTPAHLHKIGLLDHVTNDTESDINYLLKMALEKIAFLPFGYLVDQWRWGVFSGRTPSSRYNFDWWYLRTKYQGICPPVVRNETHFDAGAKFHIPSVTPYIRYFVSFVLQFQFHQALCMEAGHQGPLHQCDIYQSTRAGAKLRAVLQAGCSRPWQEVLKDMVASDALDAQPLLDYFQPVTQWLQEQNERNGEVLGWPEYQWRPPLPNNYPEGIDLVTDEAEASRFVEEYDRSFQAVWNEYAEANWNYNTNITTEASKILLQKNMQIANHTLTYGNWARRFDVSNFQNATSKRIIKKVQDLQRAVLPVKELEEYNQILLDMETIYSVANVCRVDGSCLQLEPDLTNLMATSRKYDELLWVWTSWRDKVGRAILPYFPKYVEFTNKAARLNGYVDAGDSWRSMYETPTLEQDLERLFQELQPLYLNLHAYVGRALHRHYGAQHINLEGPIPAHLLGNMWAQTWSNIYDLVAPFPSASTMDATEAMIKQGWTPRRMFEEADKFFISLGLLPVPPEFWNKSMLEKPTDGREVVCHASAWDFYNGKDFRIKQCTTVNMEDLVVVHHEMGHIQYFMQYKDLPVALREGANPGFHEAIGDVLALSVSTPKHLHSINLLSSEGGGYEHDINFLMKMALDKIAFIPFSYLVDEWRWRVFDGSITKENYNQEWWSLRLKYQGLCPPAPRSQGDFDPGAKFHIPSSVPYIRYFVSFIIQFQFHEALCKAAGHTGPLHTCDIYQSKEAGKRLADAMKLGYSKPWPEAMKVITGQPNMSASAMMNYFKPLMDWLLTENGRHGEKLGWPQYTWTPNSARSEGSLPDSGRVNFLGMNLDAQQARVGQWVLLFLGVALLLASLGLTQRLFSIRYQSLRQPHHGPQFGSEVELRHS
# Protocol text: Inhibitory concentration against angiotensin converting enzyme (ACE)
pIC50: −log10 of the molar value.
Measurement label: pIC50

>  <Chemical structure>
O=C(N[C@@H](Cc1ccccc1)C(=O)C[C@@H](O)C(=O)N1CCC[C@H]1C(=O)O)c1ccccc1

>  <Tested on>
Angiotensin-converting enzyme (Oryctolagus cuniculus, UniProt P12822)

>  <Measurement label>
pIC50

>  <Result value>
5.30

$$$$

P: O=C(N[C@@H](Cc1ccccc1)C(=O)C[C@H](O)C(=O)N1CCC[C@H]1C(=O)O)c1ccccc1
Q: O=C(N[C@@H](Cc1ccccc1)C(=O)C[C@H](O)C(=O)N1c2ccccc2C[C@H]1C(=O)O)c1ccccc1
R: O=C(N[C@@H](Cc1ccccc1)C(=O)C[C@@H](O)C(=O)N1c2ccccc2C[C@H]1C(=O)O)c1ccccc1
Request: # desc sort on pIC50 across 3 molecules I would appreciate it if you listed the labels in the requested order.
Response: R, Q, P
